- System: mice bearing PSMA-expressing LNCAP cancer xenografts
- procedure.summary: Biodistribution of 68Ga-labeled compounds
- Type: in vivo
- stated.conditions: 3 h post-injection
Field: Liver uptake. Provide a value for each of the compounds that follow.
Give bare numbers, in % ID/g.

# batch size: 6; output Liver uptake per entry
1. O=C([O-])CN1CCN(CC(=O)[O-])CCN(CC(=O)NCC2CCC(C(=O)NC(Cc3c4ccccc4cc4ccccc34)C(=O)NCCCCC(NC(=O)NC(CCC(=O)O)C(=O)O)C(=O)O)CC2)CCN(CC(=O)[O-])CC1.[68Ga+3] (stereo not drawn) [^68Ga-HTK03041]
2. Nc1ccc(CCCC(=O)NCC(=O)N[C@@H](CCCCNC(=O)CN2CCN(CC(=O)[O-])CCN(CC(=O)[O-])CCN(CC(=O)[O-])CC2)C(=O)NC[C@H]2CC[C@H](C(=O)N[C@@H](Cc3ccc4ccccc4c3)C(=O)NCCCC[C@H](NC(=O)N[C@@H](CCC(=O)O)C(=O)O)C(=O)O)CC2)cc1.[68Ga+3] [^68Ga-HTK03087]
3. O=C([O-])CN1CCN(CC(=O)[O-])CCN(CC(=O)NCCCC[C@H](NC(=O)CNC(=O)CCCc2ccc(I)cc2)C(=O)NC[C@H]2CC[C@H](C(=O)N[C@@H](Cc3ccc4ccccc4c3)C(=O)NCCCC[C@H](NC(=O)N[C@@H](CCC(=O)O)C(=O)O)C(=O)O)CC2)CCN(CC(=O)[O-])CC1.[68Ga+3] [^68Ga-HTK03024]
4. O=C([O-])CN1CCN(CC(=O)[O-])CCN(CC(=O)NCCCC[C@H](NC(=O)CNC(=O)CCCc2ccc(Cl)cc2)C(=O)NC[C@H]2CC[C@H](C(=O)N[C@@H](Cc3ccc4ccccc4c3)C(=O)NCCCC[C@H](NC(=O)N[C@@H](CCC(=O)O)C(=O)O)C(=O)O)CC2)CCN(CC(=O)[O-])CC1.[68Ga+3] [^68Ga-HTK03055]
5. O=C([O-])CN1CCN(CC(=O)[O-])CCN(CC(=O)NCCCC[C@H](NC(=O)CNC(=O)CCCc2ccc(Br)cc2)C(=O)NC[C@H]2CC[C@H](C(=O)N[C@@H](Cc3ccc4ccccc4c3)C(=O)NCCCC[C@H](NC(=O)N[C@@H](CCC(=O)O)C(=O)O)C(=O)O)CC2)CCN(CC(=O)[O-])CC1.[68Ga+3] [^68Ga-HTK03058]
6. O=C([O-])CN1CCN(CC(=O)[O-])CCN(CC(=O)NCCCC[C@H](NC(=O)CNC(=O)CCc2ccccc2)C(=O)NC[C@H]2CC[C@H](C(=O)N[C@@H](Cc3ccc4ccccc4c3)C(=O)NCCCC[C@H](NC(=O)N[C@@H](CCC(=O)O)C(=O)O)C(=O)O)CC2)CCN(CC(=O)[O-])CC1.[68Ga+3] [^68Ga-HTK03082]

Found:
[0.82, 0.31, 3.86, 2.96, 2.80, 0.17]

###

- System: mice bearing PSMA-expressing LNCAP cancer xenografts
- procedure.summary: Biodistribution of 68Ga-labeled compounds
- Format: in vivo
- stated.conditions: 1 h post-injection
observed.property: Blood uptake
Answer as a quantity: numeral, then unit.

# compound, result
measured = [
    ("O=C([O-])CN1CCN(CC(=O)[O-])CCN(CC(=O)NCC2CCC(C(=O)NC(Cc3ccc4cc5ccccc5cc4c3)C(=O)NCCCCC(NC(=O)NC(CCC(=O)O)C(=O)O)C(=O)O)CC2)CCN(CC(=O)[O-])CC1.[68Ga+3] (stereo not drawn) [^68Ga-HTK03027]", "1.56 ± 0.57 % ID/g"),
    ("O=C([O-])CN1CCN(CC(=O)[O-])CCN(CC(=O)NCCCC[C@H](NC(=O)CNC(=O)CCCc2ccc([N+](=O)[O-])cc2)C(=O)NC[C@H]2CC[C@H](C(=O)N[C@@H](Cc3ccc4ccccc4c3)C(=O)NCCCC[C@H](NC(=O)N[C@@H](CCC(=O)O)C(=O)O)C(=O)O)CC2)CCN(CC(=O)[O-])CC1.[68Ga+3] [^68Ga-HTK03089]", "6.69 ± 0.27 % ID/g"),
]

Please look at the following compound next.
Lookup: Retrieve Blood uptake on mice bearing PSMA-expressing LNCAP cancer xenografts; query O=C([O-])CN1CCN(CC(=O)[O-])CCN(CC(=O)NCCCC[C@H](NC(=O)CNC(=O)CCc2ccccc2)C(=O)NC[C@H]2CC[C@H](C(=O)N[C@@H](Cc3ccc4ccccc4c3)C(=O)NCCCC[C@H](NC(=O)N[C@@H](CCC(=O)O)C(=O)O)C(=O)O)CC2)CCN(CC(=O)[O-])CC1.[68Ga+3] [^68Ga-HTK03082]
Found: 1.37 ± 0.23 % ID/g

###

- System: mice bearing PSMA-expressing LNCAP cancer xenografts
- procedure.summary: Biodistribution of 68Ga-labeled compounds
- Type: in vivo
- stated.conditions: 1 h post-injection
Field: Tumor uptake. Provide a value for each of the compounds that follow.
Give bare numbers, in % ID/g.

Before answering, review these 5 worked examples.
# compound, Tumor uptake / % ID/g
measured = [
    ("O=C([O-])CN1CCN(CC(=O)[O-])CCN(CC(=O)NCCCC[C@H](NC(=O)CNC(=O)CCCc2ccc(Br)cc2)C(=O)NC[C@H]2CC[C@H](C(=O)N[C@@H](Cc3ccc4ccccc4c3)C(=O)NCCCC[C@H](NC(=O)N[C@@H](CCC(=O)O)C(=O)O)C(=O)O)CC2)CCN(CC(=O)[O-])CC1.[68Ga+3] [^68Ga-HTK03058]", 11.2),
    ("CCCCCCC(NC(=O)C1CCC(CNC(=O)CN2CCN(CC(=O)[O-])CCN(CC(=O)[O-])CCN(CC(=O)[O-])CC2)CC1)C(=O)NCCCCC(NC(=O)NC(CCC(=O)O)C(=O)O)C(=O)O.[68Ga+3] (stereo not shown) [^68Ga-HTK03026]", 12.5),
    ("O=C([O-])CN1CCN(CC(=O)[O-])CCN(CC(=O)NCCCC[C@H](NC(=O)CNC(=O)CCCc2ccc(Cl)cc2)C(=O)NC[C@H]2CC[C@H](C(=O)N[C@@H](Cc3ccc4ccccc4c3)C(=O)NCCCC[C@H](NC(=O)N[C@@H](CCC(=O)O)C(=O)O)C(=O)O)CC2)CCN(CC(=O)[O-])CC1.[68Ga+3] [^68Ga-HTK03055]", 17.2),
    ("O=C([O-])CN1CCN(CC(=O)[O-])CCN(CC(=O)NCCCC[C@H](NC(=O)CNC(=O)CCc2ccccc2)C(=O)NC[C@H]2CC[C@H](C(=O)N[C@@H](Cc3ccc4ccccc4c3)C(=O)NCCCC[C@H](NC(=O)N[C@@H](CCC(=O)O)C(=O)O)C(=O)O)CC2)CCN(CC(=O)[O-])CC1.[68Ga+3] [^68Ga-HTK03082]", 13.6),
    ("O=C([O-])CN1CCN(CC(=O)[O-])CCN(CC(=O)NCCCC[C@H](NC(=O)CNC(=O)CCCc2ccc(I)cc2)C(=O)NC[C@H]2CC[C@H](C(=O)N[C@@H](Cc3ccc4ccccc4c3)C(=O)NCCCC[C@H](NC(=O)N[C@@H](CCC(=O)O)C(=O)O)C(=O)O)CC2)CCN(CC(=O)[O-])CC1.[68Ga+3] [^68Ga-HTK03024]", 7.34),
]

# batch size: 2; output Tumor uptake per entry
1. O=C([O-])CN1CCN(CC(=O)[O-])CCN(CC(=O)NCCCC[C@H](NC(=O)CNC(=O)CCCc2ccc([N+](=O)[O-])cc2)C(=O)NC[C@H]2CC[C@H](C(=O)N[C@@H](Cc3ccc4ccccc4c3)C(=O)NCCCC[C@H](NC(=O)N[C@@H](CCC(=O)O)C(=O)O)C(=O)O)CC2)CCN(CC(=O)[O-])CC1.[68Ga+3] [^68Ga-HTK03089]
2. O=C([O-])CN1CCN(CC(=O)[O-])CCN(CC(=O)NCCCC[C@H](NC(=O)CNC(=O)CCCc2ccc(F)cc2)C(=O)NC[C@H]2CC[C@H](C(=O)N[C@@H](Cc3ccc4ccccc4c3)C(=O)NCCCC[C@H](NC(=O)N[C@@H](CCC(=O)O)C(=O)O)C(=O)O)CC2)CCN(CC(=O)[O-])CC1.[68Ga+3] [^68Ga-HTK03085]

Found:
1: 21.7; 2: 18.8

###

Field: Lacrimal uptake. Provide a value for each of the compounds that follow.
- System: mice bearing PSMA-expressing LNCAP cancer xenografts
- procedure.summary: Biodistribution of 68Ga-labeled compounds
- Type: in vivo
- stated.conditions: 1 h post-injection
Answers are plain numbers, in % ID/g.

# compound, Lacrimal uptake [% ID/g]
measured = [
    ("O=C([O-])CN1CCN(CC(=O)[O-])CCN(CC(=O)NCC2CCC(C(=O)NC(Cc3ccc4ccc5cccc6ccc3c4c56)C(=O)NCCCCC(NC(=O)NC(CCC(=O)O)C(=O)O)C(=O)O)CC2)CCN(CC(=O)[O-])CC1.[68Ga+3] (stereo not shown) [^68Ga-HTK03029]", 1.06),
    ("CCCCCCC(NC(=O)C1CCC(CNC(=O)CN2CCN(CC(=O)[O-])CCN(CC(=O)[O-])CCN(CC(=O)[O-])CC2)CC1)C(=O)NCCCCC(NC(=O)NC(CCC(=O)O)C(=O)O)C(=O)O.[68Ga+3] (stereo not shown) [^68Ga-HTK03026]", 1.33),
    ("COc1ccc(CCCC(=O)NCC(=O)N[C@@H](CCCCNC(=O)CN2CCN(CC(=O)[O-])CCN(CC(=O)[O-])CCN(CC(=O)[O-])CC2)C(=O)NC[C@H]2CC[C@H](C(=O)N[C@@H](Cc3ccc4ccccc4c3)C(=O)NCCCC[C@H](NC(=O)N[C@@H](CCC(=O)O)C(=O)O)C(=O)O)CC2)cc1.[68Ga+3] [^68Ga-HTK03086]", 0.24),
    ("Nc1ccc(CCCC(=O)NCC(=O)N[C@@H](CCCCNC(=O)CN2CCN(CC(=O)[O-])CCN(CC(=O)[O-])CCN(CC(=O)[O-])CC2)C(=O)NC[C@H]2CC[C@H](C(=O)N[C@@H](Cc3ccc4ccccc4c3)C(=O)NCCCC[C@H](NC(=O)N[C@@H](CCC(=O)O)C(=O)O)C(=O)O)CC2)cc1.[68Ga+3] [^68Ga-HTK03087]", 0.06),
]

# batch size: 3; output Lacrimal uptake per entry
1. O=C([O-])CN1CCN(CC(=O)[O-])CCN(CC(=O)NCCCC[C@H](NC(=O)CNC(=O)CCCc2ccc([N+](=O)[O-])cc2)C(=O)NC[C@H]2CC[C@H](C(=O)N[C@@H](Cc3ccc4ccccc4c3)C(=O)NCCCC[C@H](NC(=O)N[C@@H](CCC(=O)O)C(=O)O)C(=O)O)CC2)CCN(CC(=O)[O-])CC1.[68Ga+3] [^68Ga-HTK03089]
2. O=C([O-])CN1CCN(CC(=O)[O-])CCN(CC(=O)NCCCC[C@H](NC(=O)CNC(=O)CCCc2ccc(I)cc2)C(=O)NC[C@H]2CC[C@H](C(=O)N[C@@H](Cc3ccc4ccccc4c3)C(=O)NCCCC[C@H](NC(=O)N[C@@H](CCC(=O)O)C(=O)O)C(=O)O)CC2)CCN(CC(=O)[O-])CC1.[68Ga+3] [^68Ga-HTK03024]
3. O=C([O-])CN1CCN(CC(=O)[O-])CCN(CC(=O)NCCCC[C@H](NC(=O)CNC(=O)CCCc2ccccc2)C(=O)NC[C@H]2CC[C@H](C(=O)N[C@@H](Cc3ccc4ccccc4c3)C(=O)NCCCC[C@H](NC(=O)N[C@@H](CCC(=O)O)C(=O)O)C(=O)O)CC2)CCN(CC(=O)[O-])CC1.[68Ga+3] [^68Ga-HTK03056]

Found:
1. 0.05
2. 0.93
3. 1.35
